These entries and their values trace back to patent US20240059689A1.

Reported pIC50 values for the following molecules.
Test system: HCC1954
Assay: Viability assay, BRCA1 WT cell line HCC1954
Type: cell-based
Conditions: Homo sapiens, HCC1954, viability, read-out: HCC1954 rel IC50
pIC50: −log10 of the molar value.

Below, 5 molecules whose answers are already recorded.
| molecule | target-or-test-system | measurement-label | measured-result |
| --- | --- | --- | --- |
| Cn1cc(C(F)(F)F)nc1-c1ccc(Cn2c(=N)n(C)c3cnc(-c4ccc(F)cc4OC(F)F)nc32)cc1 [Example T-001] | HCC1954 | pIC50 | 5.00 to 6.60 |
| COc1ncnc(C2CC2)c1-c1ncc2c(n1)n(C1(c3ccc(-c4nc(C(F)(F)F)cn4C)cc3)CC1)c(=N)n2C [Example T-086] | HCC1954 | pIC50 | ≤ 5.00 |
| Cc1cc(-c2nc(C(F)(F)F)cn2C)ccc1Cn1c(=N)n(C)c2cnc(-c3ccccc3C(C)C)nc21 [Example T-040] | HCC1954 | pIC50 | ≤ 5.00 |
| COc1nccc(F)c1-c1ncc2c(n1)n(Cc1ccc(-c3nc(C(F)(F)F)cn3C)cc1)c(=N)n2CC(F)(F)F [Example T-121] | HCC1954 | pIC50 | ≤ 5.00 |
| COc1nc(C#N)ccc1-c1ncc2c(n1)n(Cc1ccc(-c3nc(C(F)(F)F)cn3C)cc1)c(=N)n2C [Example T-085] | HCC1954 | pIC50 | 5.00 to 6.60 |

Q. Given the entry COc1nccc(C2CC2)c1-c1ncc2c(n1)n(Cc1ccc(-c3nc(C(F)(F)F)cn3C)cc1)c(=N)n2CC(F)(F)F [Example T-141] , what pIC50 was observed with HCC1954?
A. ≤ 5.00

Q. Subsequent entry: COc1ncccc1-c1ncc2c(n1)n(Cc1ccc(-c3nc(C(F)(F)F)cn3C(C)C)cc1)c(=N)n2C [Example T-037]
A. ≤ 5.00

----------
Reported pIC50 values for the following molecules.
Target: USP1-UAF1 (Homo sapiens)
Sequence (O94782 whole entry): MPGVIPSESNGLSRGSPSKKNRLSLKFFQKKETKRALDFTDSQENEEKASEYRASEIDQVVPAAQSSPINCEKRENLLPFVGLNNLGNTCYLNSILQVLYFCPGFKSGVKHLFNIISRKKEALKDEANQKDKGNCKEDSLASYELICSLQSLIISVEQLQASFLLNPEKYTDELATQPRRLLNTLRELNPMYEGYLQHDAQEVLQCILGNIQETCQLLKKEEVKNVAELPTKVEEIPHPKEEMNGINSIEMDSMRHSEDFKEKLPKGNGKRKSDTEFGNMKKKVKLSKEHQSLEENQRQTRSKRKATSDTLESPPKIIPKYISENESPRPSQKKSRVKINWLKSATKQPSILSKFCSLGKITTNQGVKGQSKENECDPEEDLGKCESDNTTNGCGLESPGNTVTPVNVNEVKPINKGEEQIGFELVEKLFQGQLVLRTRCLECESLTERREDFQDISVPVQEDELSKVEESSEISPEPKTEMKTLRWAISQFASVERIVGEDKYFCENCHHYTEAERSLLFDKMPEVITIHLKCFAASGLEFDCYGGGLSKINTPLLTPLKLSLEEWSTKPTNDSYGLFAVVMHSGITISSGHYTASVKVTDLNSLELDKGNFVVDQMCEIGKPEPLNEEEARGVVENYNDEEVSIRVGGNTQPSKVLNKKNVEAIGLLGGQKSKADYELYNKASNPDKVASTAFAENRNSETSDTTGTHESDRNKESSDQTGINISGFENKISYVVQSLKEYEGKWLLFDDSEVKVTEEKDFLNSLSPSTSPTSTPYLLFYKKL
Sequence (Q8TAF3 whole entry partner): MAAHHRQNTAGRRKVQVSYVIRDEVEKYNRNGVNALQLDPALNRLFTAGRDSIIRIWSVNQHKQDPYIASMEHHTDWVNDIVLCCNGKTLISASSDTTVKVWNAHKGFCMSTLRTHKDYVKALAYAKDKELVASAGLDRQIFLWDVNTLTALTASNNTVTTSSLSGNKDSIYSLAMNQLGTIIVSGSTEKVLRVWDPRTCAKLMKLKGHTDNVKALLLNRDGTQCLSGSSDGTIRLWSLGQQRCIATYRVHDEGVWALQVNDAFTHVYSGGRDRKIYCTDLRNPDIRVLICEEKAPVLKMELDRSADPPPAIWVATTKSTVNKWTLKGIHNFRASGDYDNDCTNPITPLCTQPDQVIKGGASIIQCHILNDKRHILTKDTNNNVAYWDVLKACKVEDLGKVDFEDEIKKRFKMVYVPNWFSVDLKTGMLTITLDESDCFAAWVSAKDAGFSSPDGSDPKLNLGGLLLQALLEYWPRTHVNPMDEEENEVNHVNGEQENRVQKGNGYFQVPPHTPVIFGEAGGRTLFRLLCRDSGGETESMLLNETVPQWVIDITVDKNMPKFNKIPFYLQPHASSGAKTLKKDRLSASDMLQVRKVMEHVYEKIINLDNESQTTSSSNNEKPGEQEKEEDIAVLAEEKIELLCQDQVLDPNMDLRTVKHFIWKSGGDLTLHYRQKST
pIC50: −log10 of the molar value.

Below, 3 molecules whose answers are already recorded.
| smiles-str | pIC50 |
| --- | --- |
| CCn1cc(C(F)(F)F)nc1-c1ccc([C@@H](C)n2c(=N)n(CC(F)(F)F)c3cnc(-c4c(OC)ncnc4C4CC4)nc32)cc1 | > 7.52 |
| COc1ncnc(C2CC2)c1-c1ncc2c(n1)n([C@H](C)c1ccc(-c3nc(C(F)(F)F)cn3C)cc1)c(=N)n2C | 7.00 to 7.52 |
| Cn1cc(C(F)(F)F)nc1-c1ccc(Cn2c(=N)n(CC(F)F)c3cnc(-c4ccccc4C(F)(F)F)nc32)cc1 | 7.00 to 7.52 |

Next:
Q. Param item = C=C(C)c1ccccc1-c1ncc2c(n1)n(Cc1ccc(-c3nc(Cl)cn3C)cc1)c(=N)n2C ; retrieve measured pIC50.
A. > 7.52

----------
Reported IC50 values for the following molecules.
Test system: HCC1954
Assay: Viability assay, BRCA1 WT cell line HCC1954
Format: cell-based
Conditions: Homo sapiens, HCC1954, viability, read-out: HCC1954 rel IC50

Below, 6 molecules whose answers are already recorded.
| smiles-str | measured-result |
| --- | --- |
| CC(C)c1ccccc1-c1ncc2c(n1)n(Cc1ccc(-c3nc(C(F)(F)F)cs3)cc1)c(=N)n2C | 0.25 to 10 µM |
| COc1ncnc(C2CC2)c1-c1ncc2c(n1)n(Cc1cc(F)c(-c3nc(C(F)(F)F)cn3C)c(F)c1)c(=N)n2CC(F)(F)F | ≥ 10 µM |
| Cn1cc(C(F)(F)F)nc1-c1ccc(Cn2c(=N)n(C)c3cnc(-c4c(C#N)cnn4C)nc32)cc1 | ≥ 10 µM |
| Cn1cc(C(F)(F)F)nc1-c1ccc(Cn2c(=N)n(C)c3cnc(-c4cccnc4C4CC4)nc32)cc1 | ≥ 10 µM |
| CC(C)c1ccccc1-c1ncc2c(n1)n(CC1CCN(c3nc(Cl)cn3C)CC1)c(=N)n2C | ≥ 10 µM |
| [2H]C([2H])([2H])Oc1ncnc(C2CC2)c1-c1ncc2c(n1)n(Cc1ccc(-c3nc(C(F)(F)F)cn3C)c(CC)c1)c(=N)n2CC(F)(F)F | ≥ 10 µM |

Q. Param item = CNc1nc(OC)c(-c2ncc3c(n2)n(Cc2ccc(-c4nc(C(F)(F)F)cn4C)cc2)c(=N)n3C)c(C2CC2)n1 ; retrieve measured IC50.
A. ≥ 10 µM

Q. Subsequent entry: Cc1cnn(C)c1-c1ncc2c(n1)n(Cc1ccc(-c3nc(C(F)(F)F)cn3C)cc1)c(=N)n2C
A. ≥ 10 µM

Q. Subsequent entry: COc1ncnc(C2CC2)c1-c1ncc2c(n1)n(Cc1ccc(-c3nc(C(F)(F)F)cn3C(C)C)cc1)c(=N)n2CC(F)(F)F
A. ≥ 10 µM

Q. Subsequent entry: COc1ncnc(C(F)(F)F)c1-c1ncc2c(n1)n(Cc1ccc(-n3nc(C(F)(F)F)cc3OC)cc1)c(=N)n2CC(F)(F)F
A. 0.25 to 10 µM
